- assay-name: ATG_ISRE_CIS: Attagene CIS-FACTORIAL HepG2 Assay for human Interferon Regulatory Factor 1 (IRF1) binding to an Interferon-Stimulated Response Element (ISRE) (AID 2282948)
- condition: HepG2 ISRE cis-reporter (Attagene), mRNA transcription readout; actives raise or lower the signal
Active and inactive are the calls of the source. Rule for the calls: active = hit-call score of the fitted dose curve at least 0.9, where 1 is the maximum; inactive = score below 0.9.
Form entry, call: pick from active, inactive

Would you please look over these solved cases?
chemical-string	label
Nc1ccc(S(=O)(=O)Nc2nccs2)cc1	inactive
FC(F)(F)C(F)(F)C(F)(F)C(F)(F)CCI	inactive
OCC(F)(F)C(F)(F)C(F)(F)C(F)F	inactive
CCC(=O)OCCc1ccccc1	inactive

Outcome? `c1ccc(-c2ccccc2-c2ccccc2)cc1`
active

* * *

- assayed-system: Nuclear receptor subfamily 1 group I member 2 (Homo sapiens)
- assay-name: ATG_PXR_TRANS: Attagene TRANS-FACTORIAL HepG2 Assay for human Pregnane X Receptor (PXR) (AID 2283008)
Results filed as inconclusive are left out. The source made the active and inactive calls. The calls were made as follows: active = hit-call score of the fitted dose curve at least 0.9, where 1 is the maximum; inconclusive = response in the unintended direction; inactive = score below 0.9.
experimental-readout: AC50

compound	observed-measurement
CC(C)=CCCC(C)CCOC(=O)C(C)C (stereo unspecified)	inactive
O=C(Cl)C(F)(F)C(F)(F)C(F)(F)C(F)(F)C(F)(F)C(F)(F)C(F)(F)C(F)(F)F	54.5 µM (active)
c1ccc(B(c2ccccc2)c2ccccc2)cc1	4.69 µM (active)
CCCCNc1ccccc1	inactive
O[Si](c1ccccc1)(c1ccccc1)c1ccccc1	0.68 µM (active)

Identify the measured AC50 of `FC(F)(F)C(F)(F)CNCC(F)(F)C(F)(F)F` for Nuclear receptor subfamily 1 group I member 2 (Homo sapiens).
inactive

Identify the measured AC50 of CCCCCCC(C)OC(=O)CCCCC(=O)OC(C)CCCCCC (stereo unspecified) for Nuclear receptor subfamily 1 group I member 2 (Homo sapiens).
inactive

Identify the measured AC50 of O=C(O)C(F)(OC(F)(F)C(F)(OC(F)(F)C(F)(OC(F)(F)C(F)(F)C(F)(F)F)C(F)(F)F)C(F)(F)F)C(F)(F)F (stereo unspecified) for Nuclear receptor subfamily 1 group I member 2 (Homo sapiens).
inactive

* * *

- Read-out: TIMP metallopeptidase inhibitor 1 (TIMP1), TIMP1 (gene 7076)
- assay-name: BSK_hDFCGF_TIMP1: BioMAP Diversity Plus: hDFCGF Assay for TIMP metallopeptidase inhibitor 1 (TIMP1) Biomarker Activity (AID 2283062)
- condition: primary human foreskin fibroblasts; actives raise or lower the signal
The source made the active and inactive calls. How the source made its calls: active means hit-call score of the fitted dose curve at least 0.9, where 1 is the maximum; inactive means score below 0.9.
experimental-readout: outcome

Some solved entries appear below for comparison.
molecule	outcome
CS(C)(=O)=O	inactive
FC(F)(Br)C(F)(F)C(F)(F)C(F)(F)C(F)(F)C(F)(F)Br	inactive
O=C(CC(=O)C(F)(F)C(F)(F)F)C(F)(F)F	inactive
CC(=O)Nc1ccc(N=Nc2cc(C)ccc2O)cc1	inactive
CO[Si](OC)(c1ccccc1)c1ccccc1	inactive

Quick one: outcome for `CCCCNc1ccccc1` ?
inactive

Quick one: outcome for `FC(F)(F)C(F)(F)C(F)(F)C(F)(F)C(F)(F)C(F)(F)C(F)(F)Br` ?
inactive

Quick one: outcome for FC(F)(F)C(F)(F)C(F)(F)C(F)(F)C(F)(F)C(F)(F)CC1CO1 (stereo not drawn) ?
inactive

* * *

- Read-out: Vascular cell adhesion molecule 1 (VCAM1), VCAM1 (gene 7412)
- assay-name: BSK_CASM3C_VCAM1: BioMAP Diversity Plus: CASM3C Assay for Vascular cell adhesion molecule 1 (VCAM1) Biomarker Activity (AID 2283055);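 note: VCAM-1 protein level quantified by ELISA on the cells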
- condition: primary human coronary artery smooth muscle cells; actives raise or lower the signal
Calls of active or inactive are those of the source. Rule for the calls: active = hit-call score of the fitted dose curve at least 0.9, where 1 is the maximum; inactive = score below 0.9.
Form entry, call: pick from active, inactive

molecule	label
C#C[C@]1(O)CC[C@H]2[C@@H]3CCc4cc(OC)ccc4[C@H]3CC[C@@]21C	inactive

Outcome? `O=C(O)C(F)(F)C(F)(F)C(F)F`
inactive

Outcome? O=C(O)C(F)(OC(F)(F)C(F)(OC(F)(F)C(F)(F)C(F)(F)F)C(F)(F)F)C(F)(F)F (stereo unspecified)
inactive

Outcome? `FC(F)(F)C(F)(F)C(F)(F)C(F)(F)C(F)(F)C(F)(F)C(F)(F)C(F)(F)CCS`
inactive

Outcome? `CCCCNc1ccccc1`
inactive

Outcome? `O=S(=O)(OCCOC(F)(F)F)C(F)(F)F`
inactive

* * *

- Read-out: Interleukin 17A (IL17A), IL17A (gene 3605)
- assay-name: BSK_BT_xIL17A: BioMAP Diversity Plus: BT Assay for Interleukin 17A (IL17A) Biomarker Activity (AID 2284229)
- condition: primary human B cells with PBMC
Active and inactive are the calls of the source. Rule for the calls: active = hit-call score of the fitted dose curve at least 0.9, where 1 is the maximum; inactive = score below 0.9.
Form entry, call: pick from active, inactive

Would you please look over these solved cases?
compound	label
C=C(C)C(=O)OCC(F)(F)C(F)(F)C(F)(F)F	inactive
CC(CCl)OP(=O)(OC(C)CCl)OC(C)CCl (configuration not stated)	inactive
NC(=O)C(F)(F)C(F)(F)C(F)(F)C(F)(F)F	inactive
CC(=O)Nc1ccc(N=Nc2cc(C)ccc2O)cc1	inactive

Outcome? `OCC(F)(F)C(F)(F)C(F)(F)C(F)(F)C(F)(F)C(F)(F)F`
inactive

Outcome? `Oc1ccc(Nc2ccccc2)cc1`
active

Outcome? `O=S(=O)(OCC(F)F)C(F)(F)F`
inactive

Outcome? `OCC(F)(F)C(F)(F)C(F)(F)C(F)(F)C(F)(F)C(F)F`
inactive

Outcome? `FC(F)(F)C(F)(F)C(F)(F)C(F)(F)C(F)(F)C(F)(F)C(F)(F)C(F)(F)F`
inactive

Outcome? `C=C(C)C(=O)OCC(F)(F)C(F)(F)C(F)(F)C(F)(F)C(F)(F)C(F)(F)C(F)(F)F`
inactive

Outcome? CCCCCCC(C)OC(=O)CCCCC(=O)OC(C)CCCCCC (configuration not stated)
inactive

Outcome? `FC(F)(F)C(F)(F)C(F)(F)C(F)(F)CCI`
inactive

Outcome? `O=S(=O)(OCCOC(F)(F)F)C(F)(F)F`
inactive

Outcome? `O=C(O)C(F)(F)C(F)(F)C(F)(F)C(F)(F)C(F)(F)C(F)(F)C(F)(F)C(F)(F)C(F)(F)C(F)(F)C(F)(F)C(F)(F)C(F)(F)F`
inactive

Outcome? `C#C[C@]1(O)CC[C@H]2[C@@H]3CCc4cc(OC)ccc4[C@H]3CC[C@@]21C`
inactive

Outcome? `CCCCCCCOC(=O)c1ccccc1C(=O)OCCCCCCC`
inactive

Outcome? `O=C(O)C(F)(F)C(F)(F)C(F)(F)C(F)(F)C(F)(F)C(F)(F)C(F)(F)C(F)(F)Cl`
inactive

* * *

- assay-name: ACEA_ER_AUC_viability: ACEA Biosciences xCELLigence Real-Time Cell Analysis on Estrogen Receptor Agonism for Viability (AID 2283782);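 note: continuous compound exposure with impedance area under curve over 80 h; hit means loss of impedance signal meaning reduced cell growth or viability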
Results filed as inconclusive are left out. Activity calls are given as the source filed them. The calls were made as follows: active = hit-call score of the fitted dose curve at least 0.9, where 1 is the maximum; inconclusive = response in the unintended direction; inactive = score below 0.9.
Form entry, call: pick from active, inactive

Would you please look over these solved cases?
compound	label
CC(=O)Nc1ccc(N=Nc2cc(C)ccc2O)cc1	inactive
CC(C)c1ccccc1N	active
C=CC(F)(F)C(F)(F)C(F)(F)C(F)(F)C(F)(F)C(F)(F)C(F)(F)C(F)(F)C=C	inactive
COC(OC(C)=O)c1ccccc1 (stereo unspecified)	inactive
[Co]	inactive
O=C(O)C(F)(F)C(F)(F)C(F)(F)C(F)(F)C(F)(F)C(F)(F)C(F)(F)C(F)(F)Cl	active
OC[C@@H](O)[C@@H](O)[C@H](O)[C@@H](O)CO	inactive
CCCCCC=O	inactive

Outcome? CCCCC(CC)COP(=O)(O)OCC(CC)CCCC (stereo unspecified)
active

Outcome? `CC(C)(C)C(=O)CC(=O)C(F)(F)C(F)(F)C(F)(F)F`
inactive

Outcome? COC(=O)C1CCC(C(=O)OC)CC1 (stereo unspecified)
inactive

Outcome? `CCc1ccc(C(c2ccc(CC)cc2)C(Cl)Cl)cc1`
inactive

Outcome? `FC(F)(F)C(F)(F)C(F)(F)C(F)(F)C(F)(F)C(F)(F)C(F)(F)I`
inactive

* * *

- assay-name: ATG_TGFb_CIS: Attagene CIS-FACTORIAL HepG2 Assay for human Transforming Growth Factor (TGF) (AID 2282967)
- condition: HepG2 Attagene CIS TGFb reporter, mRNA transcription; actives raise or lower the signal
- Method: ATG_CIS is a cell-based, multiplexed-readout assay that uses HepG2, a human liver cell line, with measurements taken at 24 hours after chemical dosing in a 24-well plate.ATG_TGFb_CIS is one of 52 assay component(s) measured or calculated from the ATG_CIS assay. […] This assay endpoint, ATG_TGFb_CIS, was analyzed with bidirectional fitting relative to DMSO as the negative control and baseline of activity. […]
The source made the active and inactive calls. Rule for the calls: active = hit-call score of the fitted dose curve at least 0.9, where 1 is the maximum; inactive = score below 0.9.
Form entry, call: pick from y (active), n (inactive)

compound	label
CS(C)(=O)=O	n
OCCCC(F)(F)C(F)(F)C(F)(F)F	n
CO[Si](OC)(c1ccccc1)c1ccccc1	n
FC(F)(F)C(F)(F)CNCC(F)(F)C(F)(F)F	n
CCCCCC=O	n
COC(=O)CCC(F)(F)C(F)(F)C(F)(F)C(F)(F)F	n

Outcome? `FC(F)(F)C(F)(F)C(F)(F)C(F)(F)C(F)(F)C(F)(F)C(F)(F)C(F)(F)CCS`
n

Outcome? `OCC(F)(F)C(F)(F)C(F)(F)C(F)(F)C(F)(F)C(F)(F)F`
n

Outcome? `CCN(CC)c1ccc2c(C)cc(=O)oc2c1`
n

Outcome? `Cc1cccc(N(C)C)c1`
n

Outcome? FC1CC(F)(F)C(F)(F)C1(F)F (stereo unspecified)
n

Outcome? `FC(F)(F)C(F)(F)C(F)(F)C(F)(F)C(F)(F)C(F)(F)CCS`
n

Outcome? CCCCCCC(C)OC(=O)CCCCC(=O)OC(C)CCCCCC (stereo unspecified)
n

Outcome? `C=CC(=O)OCC(F)(F)C(F)(F)C(F)(F)C(F)(F)COC(=O)C=C`
n

Outcome? `Nc1ccc(Oc2cccc(Oc3ccc(N)cc3)c2)cc1`
n

Outcome? `O=C(O)C(F)(F)C(F)(F)C(F)F`
n

Outcome? `Cc1ccc(S(=O)(=O)NCl)cc1`
n

Outcome? CC(C)=CCCC(C)CCOC(=O)C(C)C (stereo unspecified)
n

Outcome? COC(OC(C)=O)c1ccccc1 (stereo unspecified)
n

Outcome? `O=C(O)C(F)(F)C(F)(F)C(F)(F)C(F)(F)C(F)(F)C(F)(F)C(F)(F)C(F)(F)C(F)(F)C(F)(F)C(F)(F)C(F)(F)C(F)(F)F`
n

Outcome? `C#C[C@]1(O)CC[C@H]2[C@@H]3CCc4cc(OC)ccc4[C@H]3CC[C@@]21C`
y
